Data origin, for the record: ChEMBL document CHEMBL5331048

System: Caco-2
Assay: Anticancer activity against human Caco-2 cells assessed as cell growth inhibition measured after 72 hrs by MTT assay
Type: functional, cell-based
Conditions: Caco-2, 72 h
quantityMeasured: pIC50
Field pIC50 (float): negative decimal logarithm of the concentration in molar.

Request: Give reported pIC50 value for O=C1N[C@@H]2[C@H]3NC(=O)[C@@H]4Cc5cc6ccccc6n5-n5cc(c6ccccc65)C[C@@H]1N[C@H]2[C@@H]3N4
Response: 4.12

* * *

System: HGC-27
Assay: Anticancer activity against human HGC-27 cells assessed as cell growth inhibition measured after 24 hrs by CCK-8 assay
Type: functional, cell-based
Conditions: HGC-27, 24 h
quantityMeasured: pIC50
Field pIC50 (float): negative decimal logarithm of the concentration in molar.

Request: Give reported pIC50 value for c1ccc(C(OCCN2CCCCC2)c2ccccc2)cc1 [PERASTINE]
Response: 4.84
